system: Pseudomonas aeruginosa; assay: Minimum inhibitory concentration towards Pseudomonas aeruginosa; type: functional
Below, each of the molecules is paired with its reported MIC value.
Answer format: numeric, µg/mL implied, no suffix.

Sample records with MIC:
O=C(O)CCSC1=CC(=O)c2ccccc2C1=O
12.5
O=C(O)c1ccccc1SC1=CC(=O)c2c(Cl)ccc(O)c2C1=O
50

Please find the next molecule below.
Input line: // MIC lookup, key: O=C1C=CC(=O)C(Sc2ccccc2C(=O)O)=C1
Output line: 25

====

tested on: Staphylococcus aureus; assay: Minimum inhibitory concentration towards Staphylococcus aureus; assay type: functional
measuredMetric: MIC

O=C(O)CCCSC1=CC(=O)c2c(O)ccc(O)c2C1=O
> 50 µg/mL

Input line: Please tell me: MIC of O=C1C=CC(=O)C(Sc2ccccc2C(=O)O)=C1 , system Staphylococcus aureus?
Output line: > 50 µg/mL

Input line: Please tell me: MIC of O=C(O)c1ccccc1SC1=CC(=O)c2c(Cl)ccc(O)c2C1=O , system Staphylococcus aureus?
Output line: > 50 µg/mL

====

tested on: Microsporum canis; experiment: Minimum inhibitory concentration towards Microsporum canis; format: functional
measuredMetric: MIC

Input line: // MIC lookup, key: Clc1ccc(COC(Cn2ccnc2)c2ccc(Cl)cc2Cl)c(Cl)c1 (stereo not drawn)
Output line: < 0.78 mg/L

Input line: // MIC lookup, key: O=C(O)c1ccccc1SC1=CC(=O)c2c(Cl)ccc(O)c2C1=O
Output line: > 50 mg/L

Input line: // MIC lookup, key: O=C(O)CCCSC1=CC(=O)c2ccccc2C1=O
Output line: > 50 mg/L

====

Below, each of the compounds is paired with its reported MIC value.
tested on: Pseudomonas aeruginosa; test: Minimum inhibitory concentration towards Pseudomonas aeruginosa; assay type: functional

O=C1C=C(Sc2ccccc2)C(=O)c2ccccc21
> 50 µg/mL
O=C(O)CCCSC1=CC(=O)c2c(O)ccc(O)c2C1=O
> 50 µg/mL

Please find the next compound below.
Input line: // MIC lookup, key: O=C1C(Sc2cccc3ccccc23)=C(Sc2cccc3ccccc23)C(=O)c2ccccc21
Output line: > 50 µg/mL

# credit: ChEMBL document CHEMBL1146764
